- TARGET_OR_SYSTEM: T1, GST-human NOGO-A56 (human)
- T1 construct: Expressed in E. coli BL21 from pGEX-6P1 and purified on glutathione-sepharose; the GST tag is part of the protein in the assays; also called GST-Nogo-A 5+6; GST Nogo-A 5 + 6
- T1 sequence (chain, as listed by the source limits assumed): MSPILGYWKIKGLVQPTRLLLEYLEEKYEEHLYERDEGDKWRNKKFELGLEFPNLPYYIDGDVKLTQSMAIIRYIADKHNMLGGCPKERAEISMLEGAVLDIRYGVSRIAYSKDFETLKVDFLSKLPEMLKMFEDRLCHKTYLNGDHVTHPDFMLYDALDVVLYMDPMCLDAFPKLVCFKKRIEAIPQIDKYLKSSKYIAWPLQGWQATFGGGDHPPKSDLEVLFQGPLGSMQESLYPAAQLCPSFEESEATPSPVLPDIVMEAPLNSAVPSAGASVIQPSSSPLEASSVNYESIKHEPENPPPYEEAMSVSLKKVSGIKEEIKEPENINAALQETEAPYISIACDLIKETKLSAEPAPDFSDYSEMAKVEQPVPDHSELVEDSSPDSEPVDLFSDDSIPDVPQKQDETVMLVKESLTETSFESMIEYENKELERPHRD
- PROCEDURE_DETAILS: SPR (Biacore), GST-human NOGO-A56 amine-coupled to CM5, antibody flowed over, 25 C
MEASURED_PARAMETER: koff (s⁻¹)
Dear colleague, please return just the value in s⁻¹, with no unit written.

Measured koff, H26L13 (antibody, human IgG1, kappa, V domains shown, H26 FL is H6 FL with G95M (Kabat); IgG1 (L235A, G237A) / kappa; CAMPATH-1H signal (1-19) left out; also called H6(G95M)L13; H6L13 with VH CDR3 MQGY) VH: QVQLVQSGAEVKKPGASVKVSCKASGYTFTSYWMHWVRQAPGQGLEWIGNINPSNGGTNYNEKFKSRATMTRDTSTSTAYMELSSLRSEDTAVYYCELMQGYWGQGTLVTVSS VL: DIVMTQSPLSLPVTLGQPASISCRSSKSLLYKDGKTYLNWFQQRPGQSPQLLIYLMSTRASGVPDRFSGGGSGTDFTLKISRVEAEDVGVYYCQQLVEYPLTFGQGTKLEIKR : 0.00288
